// data source = ChEMBL document CHEMBL1157539

Measured Inhibition, listed per entry for reference.
Test system: Plasmodium falciparum
Test: GSK_TCMDC: Inhibition of Plasmodium falciparum 3D7 in whole red blood cells, using parasite LDH activity as an index of growth. Test compounds present at 2uM
Format: functional
Kindly provide the numeric value in % only, without the unit symbol.

{"Molecule": "Cl.O=C1CSc2ccc(CNC3CCN(CCc4c(Cl)cnc5ccc(Cl)cc45)CC3)nc2N1", "Inhibition / %": 100}
{"Molecule": "COc1ccc(-c2nc3cc4ccccc4nc3[nH]2)c(OCC(O)CNC(C)C)c1.Cl (stereo not drawn)", "Inhibition / %": 98}
{"Molecule": "O=c1nc(C=Cc2ccc(Br)cc2)oc2ccccc12", "Inhibition / %": 97}

May I ask what Inhibition has been recorded for CC(=O)O.CCC[C@@H]([C@@H](CC1CCCCC1)C(=O)N[C@H](C(=O)Nc1nccc(N)n1)C(C)(C)C)N(O)C=O ?
96

// next record C=C[C@]1(C)C[C@@H](OC(=O)NC(=O)C2CCN(C(=O)CSc3ccccc3)CC2)[C@]2(C)[C@H](C)CC[C@]3(CCC(=O)[C@H]32)[C@@H](C)[C@@H]1O
93

// next record CC(C)(C)OC(=O)Cn1cnc2cc(NC(=O)c3cc([N+](=O)[O-])cc([N+](=O)[O-])c3)ccc21
100

// next record Cc1ccc(C(=O)Nc2ccc(-c3nc4ccccc4[nH]3)cc2)cc1S(=O)(=O)N1CCOCC1
90

// next record CCn1c(SCC(=O)Nc2cc(C(F)(F)F)ccc2Cl)nc2ccccc2c1=O
93
